The measured values listed here are drawn from patent US20120065063A1.

- System: Venturia inaequalis
- EXPERIMENT_SUMMARY: Venturia test (apple)/protective
- Assay type: in vivo
- CONDITION_PARAMETERS: protective, 100 ppm, evaluation 10 days after inoculation
Label Fulfilled when efficacy is strictly below 10%; at or above that, label Not fulfilled.

A selection of reference data follows.
# COMPOUND, ASSIGNED_LABEL
data = [
    ("CC1=NOC(=O)C1=Cc1ccc(N(C)C)cc1 [Compound A-7]", "Fulfilled"),
    ("CC1=NOC(=O)/C1=C\\c1ccco1 [Compound A-8]", "Fulfilled"),
    ("CC1=NOC(=O)C1=Cc1ccc(C)cc1 [Compound A-4]", "Fulfilled"),
    ("O=C1ON=C(c2ccccc2)C1=Cc1ccc(Cl)cc1 [Compound A-2]", "Not fulfilled"),
]

Task: Strictly below 10% in efficacy? O=C1ON=C(c2ccccc2)C1=Cc1ccccc1Cl [Compound A-6]
Output: Not fulfilled

Task: Quick check: efficacy of COc1ccc(C=C2C(=O)ON=C2C)cc1 [Compound A-5] under 10%?
Output: Not fulfilled

Task: Hi there! Is efficacy for CC1=NOC(=O)C1=Cc1ccccc1 [Compound A-3] below 10%, do you know?
Output: Not fulfilled

----------
- EXPERIMENT_SUMMARY: log P by HPLC on reversed-phase columns (EEC directive 79/831 Annex V.A8)
- Type: physicochemical
- CONDITION_PARAMETERS: acidic range pH 2.7, 0.1% aqueous formic acid/acetonitrile
Listed below: log P values for each entry.
The answer should be written as a number, with no unit following it.

Recorded results for 8 compounds are shown here.
# COMPOUND, log P
data = [
    ("Cc1cc(C)c(C=C2C(=O)ON=C2c2cccc(Cl)c2Cl)c(C)c1 [Compound I-33]", 4.80),
    ("Cc1ccc(C2=NOC(=O)C2=Cc2c(C)cc(C)cc2C)cc1 [Compound I-66]", 4.44),
    ("COc1cc(OC)cc(C2=NOC(=O)C2=Cc2c(C)cc(C)cc2C)c1 [Compound I-53]", 4.21),
    ("Cc1cc(C)c(C=C2C(=O)ON=C2c2ccc(Cl)cc2Cl)c(C)c1 [Compound I-35]", 4.94),
    ("Cc1cccc(C2=NOC(=O)C2=Cc2c(C)cc(C)cc2C)c1 [Compound I-47]", 4.45),
    ("Cc1cc(C)c(C=C2C(=O)ON=C2c2ccccc2C(F)(F)F)c(C)c1 [Compound I-1]", 4.34),
    ("Cc1cc(C)c(C=C2C(=O)ON=C2c2cccc(C)c2C)c(C)c1 [Compound I-8]", 4.68),
    ("Cc1cc(C)c(C=C2C(=O)ON=C2c2ccc(Cl)c(Cl)c2)c(C)c1 [Compound I-57]", 4.95),
]

Field: next compound
Task: Tell me measured log P for Cc1cc(C)c(C=C2C(=O)ON=C2c2ccc(-c3ccccc3)cc2)c(C)c1 [Compound I-63] please.
Output: 5.16

----------
- EXPERIMENT_SUMMARY: log P by HPLC on reversed-phase columns (EEC directive 79/831 Annex V.A8)
- Format: physicochemical
- CONDITION_PARAMETERS: reversed-phase HPLC column (C18), preparation examples, acidic range pH 2.7, formic acid, read-out: log P (HCOOH)
EXPERIMENTAL_ENDPOINT: chromatographic logP
Answer with a number only.

Task: Recall and state the measured chromatographic logP for COc1ccccc1C1=NOC(=O)C1 .
Output: 1.67

Task: Hello, please tell me recorded chromatographic logP for this one: Cc1cc(C)c(/C=C2\C(=O)ON=C2c2cccc(C(F)(F)F)c2)c(C)c1
Output: 4.62

Task: Tell us which chromatographic logP value is on record for O=C1CC(c2cccc(C(F)(F)F)c2)=NO1
Output: 2.4

Task: Query chromatographic logP for O=C1CC(c2ccc(F)cc2)=NO1
Output: 1.74

Task: Specify measured chromatographic logP for COC(=O)CC(=O)c1cccc(C(F)(F)F)c1 [methyl 3-trifluoromethylbenzoylacetate] .
Output: 2.57

Task: Identify measured chromatographic logP associated with COc1ccccc1C1=NOC(=O)/C1=C\c1c(C)cccc1C
Output: 3.69

Task: Write down chromatographic logP measured for item Cc1cc(C)c(/C=C2\C(=O)ON=C2c2ccc(F)cc2)c(C)c1
Output: 4.08

----------
# Lookup of reported efficacy keyed by entry
- Test system: Blumeria graminis f.sp. tritici
- EXPERIMENT_SUMMARY: Blumeria test (wheat)/protective
- Assay type: in vivo
- CONDITION_PARAMETERS: protective, 1000 ppm, evaluation 7 days after inoculation
Write down the numeric answer in % and omit the unit.

As a guide, the following entries are already answered.
# COMPOUND_STRING, efficacy (%)
data = [
    ("COc1ccc(C=C2C(=O)ON=C2C)cc1", 29),
    ("CC1=NOC(=O)C1=Cc1ccccc1", 57),
]

Task: Give the reported value of efficacy for this record: CC1=NOC(=O)C1=Cc1ccc(C)cc1
Output: 43

Task: Give reported efficacy value for O=C1ON=C(c2ccccc2)C1=Cc1ccccc1
Output: 29

Task: Identify measured efficacy associated with O=C1ON=C(c2ccccc2)C1=Cc1ccc(Cl)cc1
Output: 29

Task: // Input: CC1=NOC(=O)/C1=C\c1ccco1 . Output its efficacy only.
Output: 29

Task: Write down efficacy measured for item CC1=NOC(=O)C1=Cc1ccc(N(C)C)cc1
Output: 0

Task: Write down efficacy measured for item O=C1ON=C(c2ccccc2)C1=Cc1ccccc1Cl
Output: 29

----------
- EXPERIMENT_SUMMARY: log P by HPLC on reversed-phase columns (EEC directive 79/831 Annex V.A8)
- Format: physicochemical
- CONDITION_PARAMETERS: acidic range pH 2.7, 0.1% aqueous formic acid/acetonitrile
Each item that follows carries a reported log P.
Answer using only a numeral; do not append any unit.

# COMPOUND_STRING, log P
data = [
    ("Cc1cc(C)c(C=C2C(=O)ON=C2c2ccc(C)c(C)c2)c(C)c1", 4.81),
    ("Cc1cc(C)c(C=C2C(=O)ON=C2c2ccc(C(C)(C)C)cc2)c(C)c1", 5.43),
    ("Cc1cc(C)c(C=C2C(=O)ON=C2c2ccc(OC(F)(F)F)cc2)c(C)c1", 4.73),
    ("CCOc1ccccc1C1=NOC(=O)C1=Cc1c(C)cccc1C", 4.00),
    ("Cc1cc(C)c(C=C2C(=O)ON=C2c2cc(Br)ccc2Br)c(C)c1", 5.05),
    ("Cc1cc(C)c(C=C2C(=O)ON=C2c2ccccc2OCc2ccccc2)c(C)c1", 4.86),
    ("Cc1cc(C)c(C=C2C(=O)ON=C2c2ccccc2OC(F)(F)F)c(C)c1", 4.59),
]

Now for another entry.
Task: Could you please provide reported log P for Cc1cc(C)c(C=C2C(=O)ON=C2c2ccccc2[N+](=O)[O-])c(C)c1 ? Thanks!
Output: 3.76

----------
- EXPERIMENT_SUMMARY: log P by HPLC on reversed-phase columns (EEC directive 79/831 Annex V.A8)
- Assay type: physicochemical
- CONDITION_PARAMETERS: acidic range pH 2.7, 0.1% aqueous formic acid/acetonitrile
log P by entry:
Lab note: record just the number, no unit beside it.

# COMPOUND, EXPERIMENTAL_ENDPOINT, MEASURED_VALUE
data = [
    ("Cc1cccc(C)c1C=C1C(=O)ON=C1c1ccccc1[N+](=O)[O-] [Compound I-4]", "log P", 3.40),
]

Task: Respond only with log P recorded for Cc1cc(C)c(C=C2C(=O)ON=C2c2cc(Cl)ccc2Cl)c(C)c1 [Compound I-40]
Output: 4.71

Task: Given the compound Cc1cc(C)c(C=C2C(=O)ON=C2c2cc(Br)ccc2Cl)c(C)c1 [Compound I-41] , write its reported log P.
Output: 4.83

Task: Provide only the value of recorded log P for Cc1ccc(C2=NOC(=O)C2=Cc2c(C)cccc2C)cc1C [Compound I-50]
Output: 4.41

Task: Identify measured log P corresponding to Cc1cc(C)cc(C2=NOC(=O)C2=Cc2c(C)cc(C)cc2C)c1 [Compound I-48]
Output: 4.88

Task: Given Cc1cccc(C)c1C=C1C(=O)ON=C1c1ccccc1 [Compound I-52] , respond with its log P.
Output: 3.68

Task: State its log P: Cc1cc(C)c(C=C2C(=O)ON=C2c2ccccc2Cl)c(C)c1 [Compound I-28]
Output: 4.38

Task: Determine from records and report log P for Cc1cccc(C)c1C=C1C(=O)ON=C1c1cc(F)ccc1F [Compound I-37]
Output: 3.77

Task: Fill in log P for record Cc1cccc(C)c1C=C1C(=O)ON=C1c1cc(Br)ccc1Br [Compound I-44]
Output: 4.57

----------
# log P per entry
- EXPERIMENT_SUMMARY: log P by HPLC on reversed-phase columns (EEC directive 79/831 Annex V.A8)
- Format: physicochemical
- CONDITION_PARAMETERS: acidic range pH 2.7, 0.1% aqueous formic acid/acetonitrile
Answer with the value's number alone.

# COMPOUND, log P
rows = [
    ("Cc1cc(C)c(C=C2C(=O)ON=C2c2cccc(Cl)c2)c(C)c1 [Compound I-56]", 4.48),
]

Task: State its log P for this compound: Cc1cc(C)c(C=C2C(=O)ON=C2c2c(F)cccc2F)c(C)c1 [Compound I-24]
Output: 4.09

Task: In one line, give reported log P of the entry COc1ccc(C2=NOC(=O)C2=Cc2c(C)cc(C)cc2C)cc1 [Compound I-67] .
Output: 4.00

Task: Could you please provide reported log P for Cc1cc(C)c(C=C2C(=O)ON=C2c2ccc([N+](=O)[O-])cc2)c(C)c1 [Compound I-65] ? Thanks!
Output: 3.99

Task: Note log P for the compound shown: CCOc1ccc(C2=NOC(=O)C2=Cc2c(C)cc(C)cc2C)cc1 [Compound I-69]
Output: 4.46

Task: Check the records and state log P for CCOc1ccccc1C1=NOC(=O)C1=Cc1c(C)cc(C)cc1C [Compound I-26]
Output: 4.42
